test system: KYSE-520 (Esophageal Squamous Cell Carcinoma); assay: combination Emax (second highest fraction inhibited in the dose matrix, 72 h); higher = more inhibition; extreme values may be limits of the assay
VALUE TYPE: combination Emax
One number for each entry.

Worked set:
>  <MOLECULE>
C[C@@H](c1ccc2nccn2c1)n1nnc2ncc(-c3cnn(C)c3)nc21 [Savolitinib] + CN(CC[C@H](CSC1=CC=CC=C1)NC2=C(C=C(C=C2)S(=O)(=O)NC(=O)C3=CC=C(C=C3)N4CCC(CC4)[C@H](C5=CC=CC=C5C6=CC=C(C=C6)Cl)O)S(=O)(=O)C(F)(F)F)CCO [AZD4320] (first compound max 1 µM, 7x7, partner max 1 µM)

>  <combination Emax>
0.2

$$$$
>  <MOLECULE>
CC1(C)CCC(CN2CCN(c3ccc(C(=O)NS(=O)(=O)c4ccc(NCC5CCOCC5)c([N+](=O)[O-])c4)c(Oc4cnc5[nH]ccc5c4)c3)CC2)=C(c2ccc(Cl)cc2)C1 [Venetoclax] + CCN(CCO)CCCOc1ccc2c(Nc3cc(CC(=O)Nc4cccc(F)c4)[nH]n3)ncnc2c1 [AZD2811] (first compound max 1 µM, 7x7, partner max 1 µM)

>  <combination Emax>
0.304

$$$$

Please look up its combination Emax: Cn1cnc2c(F)c(Nc3ccc(Br)cc3Cl)c(C(=O)NOCCO)cc21 [Selumetinib] + C=CCn1c(=O)c2cnc(Nc3ccc(N4CCN(C)CC4)cc3)nc2n1-c1cccc(C(C)(C)O)n1 [AZD1775] (first compound max 10 µM, partner max 1 µM) 0.595
